These entries and their values trace back to ChEMBL document CHEMBL5126517.

SYSTEM: Dual specificity tyrosine-phosphorylation-regulated kinase 3 (Homo sapiens, UniProt O43781)
Sequence (O43781 whole entry, the tested form may be a part): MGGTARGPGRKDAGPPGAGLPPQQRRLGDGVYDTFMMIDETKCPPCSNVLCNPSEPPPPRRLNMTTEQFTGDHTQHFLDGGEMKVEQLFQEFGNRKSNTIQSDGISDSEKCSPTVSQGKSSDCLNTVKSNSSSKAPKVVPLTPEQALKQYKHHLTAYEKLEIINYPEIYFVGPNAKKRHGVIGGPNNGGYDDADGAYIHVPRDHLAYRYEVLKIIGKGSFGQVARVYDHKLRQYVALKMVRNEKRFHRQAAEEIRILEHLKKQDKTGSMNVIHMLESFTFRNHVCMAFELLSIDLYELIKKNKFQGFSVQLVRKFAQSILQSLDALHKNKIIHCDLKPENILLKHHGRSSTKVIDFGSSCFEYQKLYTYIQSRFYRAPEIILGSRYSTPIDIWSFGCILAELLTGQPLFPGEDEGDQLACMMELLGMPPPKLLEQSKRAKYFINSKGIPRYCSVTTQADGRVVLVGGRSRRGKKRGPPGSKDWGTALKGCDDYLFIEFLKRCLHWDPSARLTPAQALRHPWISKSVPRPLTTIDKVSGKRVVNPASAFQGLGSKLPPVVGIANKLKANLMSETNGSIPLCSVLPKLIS
ASSAY_NOTES: Inhibition of GST-fused human recombinant DYRK3 expressed in Escherichia coli using GRSRSRSRSRSR peptide as substrate incubated for 30 mins in presence of ATP by scintillation counting method
Each entry below carries its recorded pIC50.
pIC50 is defined as minus the log10 of a concentration measured in mol/L.

# COMPOUND_STRING, MEASURED_VALUE
records = [
    ("COc1ccc(NC2=N/C(=C\\c3ccc4c(c3)OCO4)C(=O)N2)cc1", 5.22),
    ("O=C1NC(N2CCCCC2)=N/C1=C\\c1ccc2c(c1)OCO2", 6.28),
    ("O=C1NC(Nc2ccccc2)=N/C1=C\\c1ccc2c(c1)CCO2", 6.62),
    ("O=C1NC(Nc2ccccn2)=N/C1=C\\c1ccc2c(c1)OCO2", 6.51),
    ("CCCNC1=N/C(=C\\c2ccc3c(c2)OCO3)C(=O)N1c1ccccc1", 5.15),
]

Which measured pIC50 value corresponds to "O=C1NC(Nc2ccccc2)=N/C1=C\c1ccc2c(c1)OCCO2" ?
6.38

Please give the measured pIC50 for this molecule: "CCCSC1=N/C(=C\c2ccc3c(c2)OCO3)C(=O)N1"
6.29

Request the reported pIC50 associated with "O=C1NC(Nc2ccc(O)c(F)c2)=N/C1=C\c1ccc2c(c1)OCO2"
6.77

Form field: reported pIC50 of "CCNC1=N/C(=C\c2ccc3c(c2)OCO3)C(=O)N1"
6.33

Query: pIC50; subject: "Cc1ccc(NC2=N/C(=C\c3ccc4c(c3)OCO4)C(=O)N2)c(C)c1"
6.02

Which pIC50 is listed for "O=C1NC(N2CCN(c3ccc(F)cc3)CC2)=N/C1=C\c1ccc2c(c1)OCCO2" ?
5.68

Data request, read-out pIC50, for "O=C1NC(Nc2ccccc2)=N/C1=C\c1ccc2c(c1)CCCO2"
6.38

Report pIC50 for "O=C1NC(NC2CCNCC2)=N/C1=C\c1ccc2c(c1)OCO2" please.
6.04

I am curious: what pIC50 value has been reported for "CCCNC1=N/C(=C\c2ccc3c(c2)OCO3)C(=O)N1C" ?
5.92

----------
Recorded IC50 values (Dual specificity tyrosine-phosphorylation-regulated kinase 1B (Homo sapiens)) are given below.
The response must be a number in nM with no trailing unit.

# COMPOUND_STRING, SCALE_UNIT, IC50
records = [
    ("O=C1NC(NC2CCNCC2)=N/C1=C\\c1ccc2c(c1)OCO2", "nM", 650),
    ("Cc1ccc(NC2=N/C(=C\\c3ccc4c(c3)OCO4)C(=O)N2)c(C)c1", "nM", 160),
    ("CN(C1=N/C(=C\\c2ccc3c(c2)OCO3)C(=O)N1)c1ccccc1", "nM", 680),
    ("COc1ccc(/C=C2\\N=C(Nc3ccccc3)NC2=O)cc1", "nM", 550),
    ("O=C1NC(Nc2ccc(N3CCCCC3)cc2)=N/C1=C\\c1ccc2c(c1)OCO2", "nM", 2100),
]

Record "Cc1ccc(NC2=N/C(=C\c3ccc4c(c3)OCO4)C(=O)N2)cc1C" : what is its IC50 with Dual specificity tyrosine-phosphorylation-regulated kinase 1B (Homo sapiens)?
520

Could you share what IC50 was measured for "CCCSC1=N/C(=C\c2ccc3c(c2)OCO3)C(=O)N1" , tested on Dual specificity tyrosine-phosphorylation-regulated kinase 1B (Homo sapiens)?
90

What measured IC50 is associated with "COc1ccc(NC2=N/C(=C\c3ccc4c(c3)OCO4)C(=O)N2)cc1" on Dual specificity tyrosine-phosphorylation-regulated kinase 1B (Homo sapiens)?
270
